These entries and their values trace back to patent US10711004B2.

Biological target: human TRPA1 channel (Homo sapiens (Human), UniProt O75762)
Sequence (O75762 whole entry): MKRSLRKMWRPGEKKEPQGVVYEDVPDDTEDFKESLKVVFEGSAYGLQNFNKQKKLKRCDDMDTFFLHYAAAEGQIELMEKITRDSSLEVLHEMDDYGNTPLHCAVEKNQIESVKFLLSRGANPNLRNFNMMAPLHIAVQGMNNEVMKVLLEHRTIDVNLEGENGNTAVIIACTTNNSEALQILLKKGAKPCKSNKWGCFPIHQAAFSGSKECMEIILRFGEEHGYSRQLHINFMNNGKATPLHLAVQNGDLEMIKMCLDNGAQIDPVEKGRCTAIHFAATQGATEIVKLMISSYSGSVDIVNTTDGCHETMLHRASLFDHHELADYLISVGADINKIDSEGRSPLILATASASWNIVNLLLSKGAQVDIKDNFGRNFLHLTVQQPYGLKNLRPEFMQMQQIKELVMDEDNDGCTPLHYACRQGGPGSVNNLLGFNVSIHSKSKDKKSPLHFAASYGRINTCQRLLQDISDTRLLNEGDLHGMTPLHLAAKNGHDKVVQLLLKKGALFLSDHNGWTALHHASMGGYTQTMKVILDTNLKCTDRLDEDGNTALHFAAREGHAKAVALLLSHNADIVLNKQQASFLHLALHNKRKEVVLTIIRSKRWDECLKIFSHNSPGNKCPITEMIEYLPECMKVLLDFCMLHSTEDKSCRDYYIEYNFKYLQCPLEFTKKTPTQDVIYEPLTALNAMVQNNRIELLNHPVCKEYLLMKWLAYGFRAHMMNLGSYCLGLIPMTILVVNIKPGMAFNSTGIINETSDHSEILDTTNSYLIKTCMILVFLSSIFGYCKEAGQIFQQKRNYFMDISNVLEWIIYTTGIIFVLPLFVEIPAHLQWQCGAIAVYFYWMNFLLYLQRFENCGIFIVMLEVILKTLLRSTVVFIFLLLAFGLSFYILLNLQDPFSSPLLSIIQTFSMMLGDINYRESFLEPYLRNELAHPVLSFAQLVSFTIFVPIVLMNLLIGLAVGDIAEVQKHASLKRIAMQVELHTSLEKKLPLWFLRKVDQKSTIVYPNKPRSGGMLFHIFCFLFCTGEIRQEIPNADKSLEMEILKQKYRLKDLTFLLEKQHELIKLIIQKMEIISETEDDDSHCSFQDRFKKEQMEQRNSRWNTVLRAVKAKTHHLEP
Assay: hTRPA1 CHO Ca2+ FLIPR Tetra assay, block of cinnamaldehyde induced calcium influx
Format: cell-based
Conditions: read-out: hTRPA1 IC50 (10 min); CHO cells expressing TRPA1; compounds incubated 10 minutes at room temperature before cinnamaldehyde agonist; Hill coefficient fixed to 1.5
pIC50: −log10 of the molar value.
measured property: pIC50

compound="Cn1cnc2ncn(Cc3nc([C@H]4[C@@H]5C=C(c6ccc(F)cc6)C[C@@H]54)no3)c(=O)c21 [Example Compound 125]" result_value=8.13

P. Cn1cnc2ncn(Cc3nc([C@H]4[C@@H]5CN(c6cccc(OC(F)(F)F)c6)C[C@@H]54)no3)c(=O)c21 [Example Compound 4]
Q. O=c1c2cccnc2cnn1Cc1nc([C@H]2[C@@H]3CN(c4ccccc4)C[C@@H]32)no1 [Example Compound 213]
R. Cc1cncc2ncn(Cc3nc([C@H]4[C@@H]5CN(c6ccc(Cl)cc6)C[C@@H]54)no3)c(=O)c12 [Example Compound 36]
Task: Sort by pIC50, descending. Arrange the labels as the request states and list them.
Output: Q, R, P

---

Biological target: human TRPA1 channel (Homo sapiens (Human), UniProt O75762)
Assay: hTRPA1 CHO Ca2+ FLIPR Tetra assay, block of cinnamaldehyde induced calcium influx
Type: cell-based
Details: read-out: hTRPA1 IC50 (90 min); CHO cells expressing TRPA1; compounds incubated 90 minutes at room temperature before cinnamaldehyde agonist; Hill coefficient fixed to 1.5
measured property: IC50 (nM)

Recorded IC50, per entry:
molecule="O=c1c2cccnc2cnn1Cc1nc([C@H]2[C@@H]3CN(c4cc(F)ccn4)C[C@@H]32)no1 [Example Compound 153]" result_value=60
molecule="O=c1c2cccnc2cnn1Cc1nc([C@H]2[C@@H]3CN(c4ccccc4)C[C@@H]32)no1 [Example Compound 213]" result_value=5.1
molecule="O=c1c2ccncc2ncn1Cc1nc([C@H]2[C@@H]3CN(c4ccccc4)C[C@@H]32)no1 [Example Compound 195]" result_value=110
molecule="Cn1cnc2ncn(Cc3nc([C@H]4[C@@H]5CN(c6ccc(C#N)cc6)C[C@@H]54)no3)c(=O)c21 [Example Compound 192]" result_value=13
molecule="Cn1cnc2ncn(Cc3nc([C@@H]4[C@H]5C=C(c6cc(Cl)ccn6)C[C@H]54)no3)c(=O)c21 [Example Compound 159]" result_value=68
molecule="CNc1nc2ncn(Cc3nc([C@@H]4[C@H]5C=C(c6ccccc6)C[C@H]54)no3)c(=O)c2n1C [Example Compound 262]" result_value=14
molecule="Cn1cnc2ncn(Cc3nc([C@H]4[C@@H]5CN(c6cccc(-c7ccncc7)c6)C[C@@H]54)no3)c(=O)c21 [Example Compound 201]" result_value=66
molecule="Cn1cnc2ncn(Cc3nc([C@@H]4[C@H]5C=C(c6ccc7c(cnn7C)c6)C[C@H]54)no3)c(=O)c21 [Example Compound 264]" result_value=14
molecule="Cn1cnc2ncn(Cc3nc([C@H]4[C@@H]5CN(c6ccc(C#N)cc6F)C[C@@H]54)no3)c(=O)c21 [Example Compound 247]" result_value=23
molecule="O=c1c2cccnc2ncn1Cc1nc([C@H]2[C@@H]3C=C(c4cccc(Cl)c4)C[C@@H]32)no1 [Example Compound 180]" result_value=24

I. Cc1noc2ncn(Cc3nc([C@H]4[C@@H]5CN(c6cc(Cl)ccn6)C[C@@H]54)no3)c(=O)c12 [Example Compound 104]
II. Cc1cc(C#N)nc2ncn(Cc3nc([C@H]4C[C@](F)(c5ccc(Cl)cc5)C4)no3)c(=O)c12 [Example Compound 158]
III. Cn1cnc2ncn(Cc3nc([C@H]4[C@@H]5C=C(c6ccc7ccncc7c6)C[C@@H]54)no3)c(=O)c21 [Example Compound 135]
IV. Cn1cnc2ncn(Cc3nc([C@H]4[C@@H]5C=C(c6ccc(C#N)cc6)C[C@@H]54)no3)c(=O)c21 [Example Compound 256]
Task: Sort by IC50, descending. Arrange the labels as the request states and list them.
Output: III, I, II, IV
(III: 48 nM, I: 30 nM, II: 10 nM, IV: 6.6 nM)

---

Molecular target: human TRPA1 channel (Homo sapiens (Human), UniProt O75762)
Assay: hTRPA1 CHO Ca2+ FLIPR Tetra assay, block of cinnamaldehyde induced calcium influx
Assay type: cell-based
Conditions: read-out: hTRPA1 IC50 (10 min); CHO cells expressing TRPA1; compounds incubated 10 minutes at room temperature before cinnamaldehyde agonist; Hill coefficient fixed to 1.5
pIC50: −log10 of the molar value.
measured property: pIC50

molecule="Cn1cnc2ncn(Cc3nc([C@@H]4[C@H]5C=C(c6ccc(Cl)cc6)C[C@H]54)no3)c(=O)c21 [Example Compound 142]" result_value=7.82
molecule="Cn1cnc2ncn(Cc3nc([C@H]4[C@@H]5CN(c6cccc(-n7cccn7)c6)C[C@@H]54)no3)c(=O)c21 [Example Compound 202]" result_value=7.30

A. Cc1cnn2ncn(Cc3nc([C@H]4C[C@](F)(c5cccc(Cl)c5)C4)no3)c(=O)c12 [Example Compound 253]
B. Cc1cnn2ncn(Cc3nc([C@H]4[C@@H]5CN(c6cc(Cl)ccn6)C[C@@H]54)no3)c(=O)c12 [Example Compound 138]
Task: In the pair A and B , the larger recorded pIC50 belongs to which? Kindly state the label of the option you pick.
Output: B
(B: 7.82, A: 7.36)

---

Target: human TRPA1 channel (Homo sapiens (Human), UniProt O75762)
Test: hTRPA1 CHO Ca2+ FLIPR Tetra assay, block of cinnamaldehyde induced calcium influx
Assay type: cell-based
Settings: read-out: hTRPA1 IC50 (10 min); CHO cells expressing TRPA1; compounds incubated 10 minutes at room temperature before cinnamaldehyde agonist; Hill coefficient fixed to 1.5
pIC50: −log10 of the molar value.
measured property: pIC50

Recorded pIC50, per entry:
compound="Cn1cnc2ncn(Cc3nc([C@H]4[C@@H]5CN(c6c(F)ccc(Cl)c6F)C[C@@H]54)no3)c(=O)c21 [Example Compound 222]" measured_property=pIC50 result_value=7.53
compound="Cn1cnc2ncn(Cc3nc([C@H]4[C@@H]5CN(c6ccc(C=O)cc6)C[C@@H]54)no3)c(=O)c21 [Example Compound 32]" measured_property=pIC50 result_value=7.26
compound="Cn1cnc2ncn(Cc3nc([C@H]4[C@@H]5CN(c6ccc7ccccc7c6)C[C@@H]54)no3)c(=O)c21 [Example Compound 33]" measured_property=pIC50 result_value=8.14
compound="Cc1ccnc2ncn(Cc3nc([C@H]4C[C@](F)(c5cccc(F)c5)C4)no3)c(=O)c12 [Example Compound 143]" measured_property=pIC50 result_value=7.47
compound=Cn1cnc2ncn(Cc3nc([C@H]4[C@@H]5CN(c6cccc(C7CC7)c6)C[C@@H]54)no3)c(=O)c21 measured_property=pIC50 result_value=6.95

A. Cn1cnc2ncn(Cc3nc([C@H]4[C@@H]5C=C(c6ccccc6)C[C@@H]54)no3)c(=O)c21 [Example Compound 225]
B. Cn1cnc2ncn(Cc3nc([C@H]4[C@@H]5CN(c6cccc(C#N)n6)C[C@@H]54)no3)c(=O)c21 [Example Compound 171]
C. Cn1cnc2ncn(Cc3nc([C@@H]4[C@H]5C=C(c6ccccn6)C[C@H]54)no3)c(=O)c21 [Example Compound 128]
D. O=c1c2ccncc2ncn1Cc1nc([C@H]2[C@@H]3CN(c4cccc(Cl)c4)C[C@@H]32)no1 [Example Compound 230]
Task: Order the entries by their reported pIC50, beginning at the minimum. Arrange the labels as the request states and list them.
Output: B, C, D, A

1. Cc1cc(N)nc2ncn(Cc3nc([C@H]4[C@@H]5C=C(c6ccccc6)C[C@@H]54)no3)c(=O)c12 [Example Compound 238]
2. Cn1c(NC2COC2)nc2ncn(Cc3nc([C@H]4[C@@H]5C=C(c6ccccc6)C[C@@H]54)no3)c(=O)c21 [Example Compound 243]
Task: Please indicate which entry, 1 or 2 , has the lower recorded pIC50 value. Kindly state the label of the option you pick.
Output: 2

a. Cn1cnc2ncn(Cc3nc([C@H]4[C@@H]5CN(c6ccccc6Cl)C[C@@H]54)no3)c(=O)c21
b. Cn1cnc2ncn(Cc3nc([C@H]4[C@@H]5CN(c6cccc(Cl)c6F)C[C@@H]54)no3)c(=O)c21 [Example Compound 236]
Task: In the pair a and b , the larger recorded pIC50 belongs to which? Kindly state the label of the option you pick.
Output: b

I. Cn1cnc2ncn(Cc3nc([C@H]4[C@@H]5CN(c6ccc(OC(F)F)cc6)C[C@@H]54)no3)c(=O)c21 [Example Compound 12]
II. Cn1cnc2ncn(Cc3nc([C@H]4[C@@H]5C=C(c6ccc(F)cn6)C[C@@H]54)no3)c(=O)c21 [Example Compound 111]
Task: In the pair I and II , the larger recorded pIC50 belongs to which? Kindly state the label of the option you pick.
Output: I
(I: 7.30, II: 6.94)

a. CNc1nc2ncn(Cc3nc([C@@H]4[C@H]5C=C(c6ccccc6)C[C@H]54)no3)c(=O)c2n1C [Example Compound 262]
b. Cn1cc(-c2ccc(N3C[C@@H]4[C@H](C3)[C@H]4c3noc(Cn4cnc5ncn(C)c5c4=O)n3)cc2)cn1 [Example Compound 179]
c. Cn1cnc2ncn(Cc3nc([C@H]4[C@@H]5CN(c6cccc(C(F)F)c6)C[C@@H]54)no3)c(=O)c21
d. Cn1cnc2ncn(Cc3nc([C@@H]4[C@H]5C=C(c6ccc(Cl)cn6)C[C@H]54)no3)c(=O)c21 [Example Compound 123]
e. Cn1cnc2ncn(Cc3nc([C@H]4C[C@H](c5cc(Cl)ccc5F)C4)no3)c(=O)c21 [Example Compound 209]
Task: Sort by pIC50, descending. Arrange the labels as the request states and list them.
Output: a, c, b, d, e

I. Cn1cnc2ncn(Cc3nc([C@H]4[C@@H]5CN(c6ccc(F)cc6)C[C@@H]54)no3)c(=O)c21 [Example Compound 7]
II. Cn1cnc2ncn(Cc3nc([C@@H]4[C@H]5C=C(c6cccc(Cl)c6)C[C@H]54)no3)c(=O)c21 [Example Compound 185]
III. Cn1cnc2ncn(Cc3nc([C@H]4[C@@H]5C=C(c6ccc(Cl)cc6)C[C@@H]54)no3)c(=O)c21 [Example Compound 141]
IV. Cn1cnc2ncn(Cc3nc([C@H]4C[C@H](c5ccc(OC(F)F)cc5)C4)no3)c(=O)c21
V. Cn1cnc2ncn(Cc3nc([C@H]4C[C@](F)(c5ccc(F)cc5)C4)no3)c(=O)c21 [Example Compound 206]
Task: Sort by pIC50, descending. Arrange the labels as the request states and list them.
Output: III, II, I, IV, V

P. N#Cc1ccc2c(=O)n(Cc3nc([C@@H]4[C@H]5C=C(c6ccccc6)C[C@H]54)no3)cnc2n1 [Example Compound 266]
Q. Cn1cnc2ncn(Cc3nc([C@@H]4[C@H]5C=C(c6cc(Cl)ccn6)C[C@H]54)no3)c(=O)c21 [Example Compound 159]
Task: Please indicate which entry, P or Q , has the lower recorded pIC50 value. Kindly state the label of the option you pick.
Output: Q
